- measurementTarget: Recombinant human Cbl-b (aa 36-427) (Homo sapiens, UniProt Q13191)
- Construct: Recombinant human Cbl-b (aa 36-427) was expressed in E coli; biotin (biotinylated in vitro)
- Sequence (Q13191 36-427): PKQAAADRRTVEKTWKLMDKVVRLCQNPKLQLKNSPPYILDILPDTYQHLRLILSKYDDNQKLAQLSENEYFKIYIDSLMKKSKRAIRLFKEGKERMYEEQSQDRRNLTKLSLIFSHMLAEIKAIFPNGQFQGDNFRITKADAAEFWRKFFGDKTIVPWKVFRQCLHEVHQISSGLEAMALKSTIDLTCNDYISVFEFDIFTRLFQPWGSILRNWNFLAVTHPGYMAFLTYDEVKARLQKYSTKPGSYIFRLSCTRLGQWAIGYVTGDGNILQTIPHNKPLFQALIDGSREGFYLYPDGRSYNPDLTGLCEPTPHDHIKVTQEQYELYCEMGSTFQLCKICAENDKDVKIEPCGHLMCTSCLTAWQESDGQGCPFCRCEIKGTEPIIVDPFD
- experimentalDetails: Cbl-b Biochemical Assay (TR-FRET)
- conditionContext: 6 nM Cbl-b, 1-2.5 nM Src-Zap70, 0.5 mM ATP; HTRF signal at 520 nm
pIC50: −log10 of the molar value.
Task for the reader: assign each of the following molecules its reported pIC50.

Please look up its pIC50: C[C@H]1CCCN(Cc2cc(C(F)(F)F)c3oc(-c4cccc(C(c5nncn5C)C5COC5)c4)nc3c2)C1 (stereo partly drawn) 5.30 to 6.70

Same read-out for `Cn1cnnc1-c1ccccc1-c1cc(NCCCC#N)nc(-c2nc3cc(CNCC(C)(C)O)cc(C(F)(F)F)c3o2)c1` ? > 6.70

Same read-out for `C[C@H]1CCCN(Cc2cc(C(F)(F)F)c3oc(-c4cccc([C@@H](c5nncn5C)[C@H]5C[C@@H](C(F)(F)F)C5)c4)nc3c2)C1` ? < 5.30

Taken from patent US20260209222A1.
